# System: A498 renal
# TEST_METHOD_NOTES: NCI tumour cell line growth inhibition, 48 h
TEST_READOUT: TGI

// known answers, use as guide
# MOLECULE, EXPERIMENTAL_TARGET, ENDPOINT_VALUE
measured = [
    ("O=C(O)CC1OCC=C2C[N+]3([O-])CCC45c6ccccc6NC4C1C2CC53 (stereo unspecified)", "A498 renal", "> 100 µM"),
    ("N#Cc1ccc(Sc2ccccc2)cc1C#N", "A498 renal", "> 100 µM"),
    ("O=C(Nc1cccc(Cl)c1)Nc1cc2ncncc2cc1OCc1cccc(F)c1", "A498 renal", "5.96 µM"),
]

Q. Respond only with TGI recorded for `CN(C)CCNC(=O)c1cc([N+](=O)[O-])cn1C`
A. > 100 µM

Q. // Input: `O=C(CC(Cl)(Cl)C(Cl)(Cl)Cl)c1ccccc1` . Output its TGI only.
A. 34.6 µM

Q. For the molecule `COC(=O)c1ccc(NC(=O)c2cc3c(cc2Br)OCO3)o1` , give its measured TGI value.
A. > 100 µM

###

# System: SF-268 CNS
# TEST_METHOD_NOTES: NCI tumour cell line growth inhibition, 48 h
List of TGI values.

Would you please look over these solved cases?
# COMPOUND, TGI
rows = [
    ("O=C(Nc1ccc(Oc2cccc(Cl)c2)c(Cl)c1)c1cnccn1", "> 50 µM"),
    ("CCOC(=O)N1C(=O)C2C3C=CC(C2C1=O)C1C2C(=O)N(C(=O)OCC)C(=O)C2C31 (stereo not given)", "> 100 µM"),
    ("COc1ccc2c3c1O[C@H]1C(=O)C=CC4(n5[nH]c(=O)n(-c6ccccc6)c5=O)C(C2)N(C)CCC314 (stereo not given in full)", "> 100 µM"),
    ("O=C1CCC(c2nc3cc(Cl)ccc3o2)C(=O)N1 (stereo not given)", "> 100 µM"),
]

Let's switch to this compound now.
Q. Provide one value: measured TGI of `CC(C)(C)OC(=O)NCC(c1c[nH]c2ccc(Br)cc12)c1c[nH]c2ccc(Br)cc12`
A. 25.6 µM

###

# Tested on: SN12C renal
# TEST_METHOD_NOTES: NCI tumour cell line growth inhibition, 48 h
TEST_READOUT: TGI

Past entries and their recorded results:
# COMPOUND, EXPERIMENTAL_TARGET, TGI
measured = [
    ("Clc1ccc2oc(CCC3CCCCC3)nc2c1", "SN12C renal", "48.6 µM"),
    ("O=C1OC(CC(=O)c2ccccc2Cl)C(Cl)=C1Cl (stereo unspecified)", "SN12C renal", "> 100 µM"),
]

Q. Kindly indicate its recorded TGI. Item: `CCn1ncc(Oc2c(Cl)cc(N)cc2Cl)c(Cl)c1=O`
A. > 100 µM

Q. Fill in reported TGI for this entry: `N#C/C(=C\c1c(Cl)cccc1Cl)c1ccccc1`
A. > 69.5 µM

###

# Test system: HCT-15 colon
# TEST_METHOD_NOTES: NCI tumour cell line growth inhibition, 48 h; in the data active = GI50 below about 0.43 µM; inactive = the rest
*1 amine or outer side, *2 acyl side, *3 side chain or, on linkers, in order; H or OH if unused. Where a SMILES comes first, the peptide text is derived from it. Bridges are numbered along the chain shown (N, C = ends). [ ]: non-standard residue; d: D form. The star is where a group is joined. Phe(3,5-F2) = N[C@@H](Cc1cc(F)cc(F)c1)C(=O)O; Pro(4R-Me) = C[C@H]1CN[C@H](C(=O)O)C1; aThr = C[C@H](O)[C@H](N)C(=O)O; Pip = O=C(O)[C@@H]1CCCCN1; X10 = Fc1cc(C2CC2)ccc1N*; Abu = CC[C@H](N)C(=O)O; CO = O=C([*:1])[*:2]
// classify into active, inactive

Some entries whose results are on file:
# COMPOUND, QUALITATIVE_LABEL
rows = [
    ("CC(=O)OC1Oc2ccc(C)cc2-c2oc(=O)c(-c3cc4ccccc4oc3=O)cc21 (centres undefined)", "inactive"),
    ("Nc1c(C(=O)Nc2ccccn2)sc2nc3c(cc12)CCCCC3", "inactive"),
    ("CC(=O)Nc1ccc2c(C3=C(c4cn(C)c5ccccc45)C(=O)NC3=O)cn(C)c2c1", "inactive"),
]

Now look at this entry.
Q. Entry CC[C@@H]1NC(=O)[C@@H]2CCCCN2C(=O)[C@@H]2CCCN2C(=O)[C@@H](NC(=O)[C@H](Cc2cc(F)cc(F)c2)NC(=O)Nc2ccc(C3CC3)cc2F)[C@H](C)OC(=O)[C@@H]2C[C@@H](C)CN2C1=O ({X10-CO}-[Phe(3,5-F2)][aThr]P[Pip][Abu][Pro(4R-Me)]; ester 2-C) : call = ?
A. active
